System: NCI-H1417 complex spheroids, growth % test/control
Assay: Anticancer human tumor NCI-H1417 cell line growth inhibition [Asc];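 further: spheroids exposed to compounds for 7 days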;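 on viability, T/C: 100% = DMSO vehicle control wells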
Settings: second compound 0.316 µM; first compound 0.001 µM; stronger effect = lower value
Description: Multicellular complex tumor spheroid response to apoptosis pathway targeting inhibitors Alrizomadlin, Pelcitoclax, and Dasminapant in combination with a variety of drugs and investigational agents in selected tumor cell lines […] Compounds. […] If the clinical Cmax for an agent had not been determined, the highest concentration tested was 10 microM. […]
The entries below come with measured viability, T/C values attached.

| molecule | result |
| --- | --- |
| Cn1ncnc1[C@H]1c2n[nH]c(=O)c3cc(F)cc(c23)N[C@@H]1c1ccc(F)cc1 + Cc1c(S(C)(=O)=O)c(-c2cc(F)cc(N3CCN(c4ccc(NS(=O)(=O)c5ccc(NC(CCN6CCC(C(=O)OCCCP(=O)(O)O)CC6)CSc6ccccc6)c(S(=O)(=O)C(F)(F)F)c5)cc4)CC3)c2)c(-c2ccc(Cl)cc2)n1C(C)C | 42.7% |
| NC1CCC(NC2CC2c2ccccc2)CC1 (centres undefined) + Cc1c(S(C)(=O)=O)c(-c2cc(F)cc(N3CCN(c4ccc(NS(=O)(=O)c5ccc(NC(CCN6CCC(C(=O)OCCCP(=O)(O)O)CC6)CSc6ccccc6)c(S(=O)(=O)C(F)(F)F)c5)cc4)CC3)c2)c(-c2ccc(Cl)cc2)n1C(C)C | 43.2% |
| Cn1ncnc1[C@H]1c2n[nH]c(=O)c3cc(F)cc(c23)N[C@@H]1c1ccc(F)cc1 + CNC(C)C(=O)NC1CN(S(=O)(=O)c2cccc(S(=O)(=O)N3CCC4CCC(C(=O)NC(c5ccccc5)c5ccccc5)N4C(=O)C(NC(=O)C(C)NC)C3)c2)CCC2CCC(C(=O)NC(c3ccccc3)c3ccccc3)N2C1=O | 110% |

Enter measured viability, T/C, system NCI-H1417 complex spheroids, growth % test/control, for the molecule shown: NC1CCC(NC2CC2c2ccccc2)CC1 (centres undefined) + CNC(C)C(=O)NC1CN(S(=O)(=O)c2cccc(S(=O)(=O)N3CCC4CCC(C(=O)NC(c5ccccc5)c5ccccc5)N4C(=O)C(NC(=O)C(C)NC)C3)c2)CCC2CCC(C(=O)NC(c3ccccc3)c3ccccc3)N2C1=O
99.3%

* * *

System: NCI-H1417 complex spheroids, growth % test/control
Experiment: Anticancer human tumor NCI-H1417 cell line growth inhibition [Asc];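 further: spheroids exposed to compounds for 7 days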;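 on viability, T/C: 100% = DMSO vehicle control wells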
Settings: second compound 0.949 µM; first compound 0.1 µM; stronger effect = lower value
The entries below come with measured viability, T/C values attached.
Report only the number, with the unit % understood.

// known answers, use as guide
| molecule | recorded-number |
| --- | --- |
| C#Cc1c(F)ccc2cc(O)cc(-c3ncc4c(N5CC6CCC(C5)N6)nc(OCC56CCCN5CC(F)C6)nc4c3F)c12 (centres undefined) + CCN1C(C(=O)NC23CCC(C(=O)O)(CC2)CC3)C(c2cccc(Cl)c2F)C2(C(=O)Nc3cc(Cl)ccc32)C12CCCCC2 | 96.9 |
| NC1CCC(NC2CC2c2ccccc2)CC1 (centres undefined) + CCN1C(C(=O)NC23CCC(C(=O)O)(CC2)CC3)C(c2cccc(Cl)c2F)C2(C(=O)Nc3cc(Cl)ccc32)C12CCCCC2 | 61.5 |
| C=CC(=O)N1CCN(c2nc(=O)n(-c3c(C)ccnc3C(C)C)c3nc(-c4c(O)cccc4F)c(F)cc23)C(C)C1 (centres undefined) + CCN1C(C(=O)NC23CCC(C(=O)O)(CC2)CC3)C(c2cccc(Cl)c2F)C2(C(=O)Nc3cc(Cl)ccc32)C12CCCCC2 | 95.4 |

Next up:
Return viability, T/C (reported value) for this molecule: CNC(C)C(=O)NC1CN(S(=O)(=O)c2cccc(S(=O)(=O)N3CCC4CCC(C(=O)NC(c5ccccc5)c5ccccc5)N4C(=O)C(NC(=O)C(C)NC)C3)c2)CCC2CCC(C(=O)NC(c3ccccc3)c3ccccc3)N2C1=O (centres undefined) + CCN1C(C(=O)NC23CCC(C(=O)O)(CC2)CC3)C(c2cccc(Cl)c2F)C2(C(=O)Nc3cc(Cl)ccc32)C12CCCCC2
97.5

* * *

Test system: NCI-H1417 complex spheroids, growth % test/control
Assay: Anticancer human tumor NCI-H1417 cell line growth inhibition [Asc];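 further: spheroids exposed to compounds for 7 days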
Conditions: curve of first compound; second compound 0.01 µM
result-type: IC50

// known answers, use as guide
| molecule | IC50 |
| --- | --- |
| NC(=O)C(=Cn1cnc(-c2cc(C(F)(F)F)cc(C(F)(F)F)c2)n1)c1cncnc1 + CNC(C)C(=O)NC1CN(S(=O)(=O)c2cccc(S(=O)(=O)N3CCC4CCC(C(=O)NC(c5ccccc5)c5ccccc5)N4C(=O)C(NC(=O)C(C)NC)C3)c2)CCC2CCC(C(=O)NC(c3ccccc3)c3ccccc3)N2C1=O | > 0.3 µM |
| C=CC(=O)N1CCN(c2nc(=O)n(-c3c(C)ccnc3C(C)C)c3nc(-c4c(O)cccc4F)c(F)cc23)C(C)C1 (stereo not given) + CNC(C)C(=O)NC1CN(S(=O)(=O)c2cccc(S(=O)(=O)N3CCC4CCC(C(=O)NC(c5ccccc5)c5ccccc5)N4C(=O)C(NC(=O)C(C)NC)C3)c2)CCC2CCC(C(=O)NC(c3ccccc3)c3ccccc3)N2C1=O | > 10 µM |
| C#Cc1c(F)ccc2cc(O)cc(-c3ncc4c(N5CC6CCC(C5)N6)nc(OCC56CCCN5CC(F)C6)nc4c3F)c12 (stereo not given) + CNC(C)C(=O)NC1CN(S(=O)(=O)c2cccc(S(=O)(=O)N3CCC4CCC(C(=O)NC(c5ccccc5)c5ccccc5)N4C(=O)C(NC(=O)C(C)NC)C3)c2)CCC2CCC(C(=O)NC(c3ccccc3)c3ccccc3)N2C1=O | > 10 µM |
| C=C(F)C(=O)N1CCN(c2nc(OCC3CCCN3C)nc3c2CCN(c2cccc4cccc(Cl)c24)C3)CC1CC#N (stereo not given) + CNC(C)C(=O)NC1CN(S(=O)(=O)c2cccc(S(=O)(=O)N3CCC4CCC(C(=O)NC(c5ccccc5)c5ccccc5)N4C(=O)C(NC(=O)C(C)NC)C3)c2)CCC2CCC(C(=O)NC(c3ccccc3)c3ccccc3)N2C1=O | 4.6 µM |

Next up:
Enter measured IC50, system NCI-H1417 complex spheroids, growth % test/control, for the molecule shown: O=C(c1ccc(F)c(F)c1Nc1ccc(I)cc1F)N1CC(O)([C@@H]2CCCCN2)C1 + CNC(C)C(=O)NC1CN(S(=O)(=O)c2cccc(S(=O)(=O)N3CCC4CCC(C(=O)NC(c5ccccc5)c5ccccc5)N4C(=O)C(NC(=O)C(C)NC)C3)c2)CCC2CCC(C(=O)NC(c3ccccc3)c3ccccc3)N2C1=O
> 1 µM

* * *

Tested on: NCI-H1417 complex spheroids, growth % test/control
Test: Anticancer human tumor NCI-H1417 cell line growth inhibition [Asc];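 further: spheroids exposed to compounds for 7 days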;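 on viability, T/C: 100% = DMSO vehicle control wells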
Conditions: second compound 0.03 µM; first compound 1 µM; stronger effect = lower value
result-type: viability, T/C (%)
Report only the number, with the unit % understood.

// known answers, use as guide
| compound | study-system | units-label | recorded-number |
| --- | --- | --- | --- |
| O=C(c1ccc(F)c(F)c1Nc1ccc(I)cc1F)N1CC(O)([C@@H]2CCCCN2)C1 + CCN1C(C(=O)NC23CCC(C(=O)O)(CC2)CC3)C(c2cccc(Cl)c2F)C2(C(=O)Nc3cc(Cl)ccc32)C12CCCCC2 | NCI-H1417 complex spheroids, growth % test/control | % | 81.2 |
| CCN1CCN(Cc2ccc(Nc3ncc(F)c(-c4cc(F)c5nc(C)n(C(C)C)c5c4)n3)nc2)CC1 + CCN1C(C(=O)NC23CCC(C(=O)O)(CC2)CC3)C(c2cccc(Cl)c2F)C2(C(=O)Nc3cc(Cl)ccc32)C12CCCCC2 | NCI-H1417 complex spheroids, growth % test/control | % | 83 |

Return viability, T/C (reported value) for this compound: C#Cc1c(F)ccc2cc(O)cc(-c3ncc4c(N5CC6CCC(C5)N6)nc(OCC56CCCN5CC(F)C6)nc4c3F)c12 (centres undefined) + CCN1C(C(=O)NC23CCC(C(=O)O)(CC2)CC3)C(c2cccc(Cl)c2F)C2(C(=O)Nc3cc(Cl)ccc32)C12CCCCC2
102

Return viability, T/C (reported value) for this compound: CNC(C)C(=O)NC1CN(S(=O)(=O)c2cccc(S(=O)(=O)N3CCC4CCC(C(=O)NC(c5ccccc5)c5ccccc5)N4C(=O)C(NC(=O)C(C)NC)C3)c2)CCC2CCC(C(=O)NC(c3ccccc3)c3ccccc3)N2C1=O (centres undefined) + CCN1C(C(=O)NC23CCC(C(=O)O)(CC2)CC3)C(c2cccc(Cl)c2F)C2(C(=O)Nc3cc(Cl)ccc32)C12CCCCC2
109

* * *

Test system: NCI-H1417 complex spheroids, growth % test/control
Assay: Anticancer human tumor NCI-H1417 cell line growth inhibition [Asc];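 further: spheroids exposed to compounds for 7 days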;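 on viability, T/C: 100% = DMSO vehicle control wells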
Conditions: second compound 0.1 µM; first compound 0.00316 µM; stronger effect = lower value
result-type: viability, T/C (%)
Report only the number, with the unit % understood.

| molecule | study-system | recorded-number |
| --- | --- | --- |
| Cn1ncnc1[C@H]1c2n[nH]c(=O)c3cc(F)cc(c23)N[C@@H]1c1ccc(F)cc1 + CNC(C)C(=O)NC1CN(S(=O)(=O)c2cccc(S(=O)(=O)N3CCC4CCC(C(=O)NC(c5ccccc5)c5ccccc5)N4C(=O)C(NC(=O)C(C)NC)C3)c2)CCC2CCC(C(=O)NC(c3ccccc3)c3ccccc3)N2C1=O | NCI-H1417 complex spheroids, growth % test/control | 90.9 |
| CCN1CCN(Cc2ccc(Nc3ncc(F)c(-c4cc(F)c5nc(C)n(C(C)C)c5c4)n3)nc2)CC1 + CNC(C)C(=O)NC1CN(S(=O)(=O)c2cccc(S(=O)(=O)N3CCC4CCC(C(=O)NC(c5ccccc5)c5ccccc5)N4C(=O)C(NC(=O)C(C)NC)C3)c2)CCC2CCC(C(=O)NC(c3ccccc3)c3ccccc3)N2C1=O | NCI-H1417 complex spheroids, growth % test/control | 93.2 |

Next up:
Return viability, T/C (reported value) for this molecule: CNC(C)C(=O)NC1CN(S(=O)(=O)c2cccc(S(=O)(=O)N3CCC4CCC(C(=O)NC(c5ccccc5)c5ccccc5)N4C(=O)C(NC(=O)C(C)NC)C3)c2)CCC2CCC(C(=O)NC(c3ccccc3)c3ccccc3)N2C1=O (stereo not drawn) + Cc1c(S(C)(=O)=O)c(-c2cc(F)cc(N3CCN(c4ccc(NS(=O)(=O)c5ccc(NC(CCN6CCC(C(=O)OCCCP(=O)(O)O)CC6)CSc6ccccc6)c(S(=O)(=O)C(F)(F)F)c5)cc4)CC3)c2)c(-c2ccc(Cl)cc2)n1C(C)C
94.1
